TESTED SYSTEM: UDPGT1A1 (Homo sapiens, UniProt P22309)
Construct: purchased SigmaAldrich U7254
Sequence (P22309 26-533): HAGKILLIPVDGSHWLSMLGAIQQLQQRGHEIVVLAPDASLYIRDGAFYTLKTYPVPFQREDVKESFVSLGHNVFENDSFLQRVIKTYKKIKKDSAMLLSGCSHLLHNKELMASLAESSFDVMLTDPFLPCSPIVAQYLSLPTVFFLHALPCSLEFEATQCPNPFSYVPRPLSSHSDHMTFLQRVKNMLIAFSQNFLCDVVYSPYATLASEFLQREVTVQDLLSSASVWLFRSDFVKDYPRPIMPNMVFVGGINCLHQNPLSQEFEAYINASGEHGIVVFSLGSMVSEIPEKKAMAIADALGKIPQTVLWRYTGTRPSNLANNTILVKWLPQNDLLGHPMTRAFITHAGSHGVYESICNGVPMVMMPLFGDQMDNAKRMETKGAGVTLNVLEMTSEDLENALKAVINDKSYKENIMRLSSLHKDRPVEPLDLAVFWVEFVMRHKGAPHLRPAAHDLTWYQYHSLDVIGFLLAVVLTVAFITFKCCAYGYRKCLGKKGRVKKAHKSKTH
EXPERIMENTAL DETAILS: Inhibition of bilirubin glucuronidation by UDPGT
Format: biochemical
CONDITION PARAMETERS: Table 4; bilirubin 0.1 mM as substrate; read-out: Apparent Ki
OUTCOME MEASURE: Ki (µM)
Write the answer as a number in µM, unit excluded.

>>> endpoint_value("CCC1=C(C)/C(=C/c2[nH]c(Cc3[nH]c(/C=C4\\NC(=O)C(C)=C4CC)c(C)c3CCC(=O)O)c(CCC(=O)O)c2C)NC1=O")
2.3
>>> endpoint_value("CCCCCCCCOC(=O)c1cc(O)c(O)c(O)c1 [Octyl gallate ester]")
7.6
>>> endpoint_value("C=CC1=C(C)/C(=C/c2[nH]c(Cc3[nH]c(/C=C4\\NC(=O)C(C=C)=C4C)c(C)c3CCC(=O)O)c(CCC(=O)O)c2C)NC1=O")
1.5
>>> endpoint_value("C=CC1=C(C)C(OC)N/C1=C\\c1[nH]c(Cc2[nH]c(/C=C3\\NC(OC)C(C=C)=C3C)c(C)c2CCC(=O)O)c(CCC(=O)O)c1C (stereo not drawn)")
1.3

Requested field: Ki. Item: C=CC1=C(C)/C(=C/C2=NC(=C/c3[nH]c(/C=C4\NC(=O)C(C)=C4C=C)c(C)c3CCC(=O)O)/C(CCC(=O)O)=C2C)NC1=O
19.9

Consider the compound C=CC1=C(C)C(=O)N/C1=C\c1[nH]c(Cc2[nH]c(/C=C3\NC(=O)C(C)=C3C=C)c(C)c2CCC(=O)O)c(CCC(=O)O)c1C and give its measured Ki.
1.7

---

TESTED SYSTEM: UDPGT1A1 (Homo sapiens, UniProt P22309)
Construct: purchased SigmaAldrich U7254
EXPERIMENTAL DETAILS: Inhibition of bilirubin glucuronidation by UDPGT
Type: biochemical
CONDITION PARAMETERS: read-out: inhibition constant (Ki)
OUTCOME MEASURE: Ki

Please look up its Ki: C=CC1=C(C)C(OC)N/C1=C\c1[nH]c(Cc2[nH]c(/C=C3\NC(OC)C(C=C)=C3C)c(C)c2CCC(=O)O)c(CCC(=O)O)c1C (stereo not shown) [DimethoxybilirubinIXα]
~1000 nM
